// data source = the RNAGym collection of RNA variant scans (doi:10.1093/nar/gkz1192)

B1: CPEB3 Ribozyme (parent)
chain: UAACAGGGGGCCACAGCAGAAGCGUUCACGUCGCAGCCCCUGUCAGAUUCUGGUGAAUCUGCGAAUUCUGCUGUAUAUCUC

- Variants of: B1
- test: self-cleavage, relative activity (ratio to wild type); higher = more cleavage; in vitro, sequencing
Listing of recorded self-cleavage by entry.

polymer.sequence | self-cleavage
UAACAGGGGGCCACAGCAGAACCGUUCACGUCGCAGCCCCUGUCAGAUUCUGGUGAAUCUGCGAAUUCUGCUGUAUAUCGC [G22C U80G] | 0.27
UAACAGGGGGCCACAGCAGCAGCGUUCACGUCGUAGCCCCUGUCAGAUUCUGGUGAAUCUGCGAAUUCUGCUGUAUAUCUC [A20C C34U] | 0.18
UAACAGGGGGCCACAGCAGAAGCGUUCACGCCGCAGCCCCUGUCAGAUUCUGGUGAAUCUGCGAAAUCUGCUGUAUAUCUC [U31C U66A] | 0.28
UAACAGGGGGCCACAGCAGAAGCGUUCACAUCGCAGCCCCUGUCAGAUUCUGGUGAAUCUGCGUAUUCUGCUGUAUAUCUC [G30A A64U] | 0.34
UAACAGGGGGCCACAGCAGAAGCGUUCACGUCGCAGCCCCUGUCAGAUUCUGGUCAAUCUGCGAAUUCUGCUGUAUAACUC [G55C U78A] | 0.97
UAACAGGGUGCCACAGCAGAAGCGUUCACGUCGCAGCCCCUGGCAGAUUCUGGUGAAUCUGCGAAUUCUGCUGUAUAUCUC [G9U U43G] | 0.12
UAACAGGGGGCCACAGCAGGAGCGUUCACGUCGCAGCCCCUGUCAGAUUGUGGUGAAUCUGCGAAUUCUGCUGUAUAUCUC [A20G C50G] | 0.57
UAACAGGGGGCCACAGCAGAAGCGUUCACGUCGCAGCCCCUGUCAGAUUCCGGUGAAUCUGCGAAUUCUGCAGUAUAUCUC [U51C U72A] | 0.75
UAACAGGGGGCCACAGCAGAAGCGUUCACGUCGCAGCCCCUGCCAGAUUCUGGUGAAUCUGCGAAUUCUGCUGUUUAUCUC [U43C A75U] | 0.62
UAACAGGGGCCCACAGCAGAAGCGUUCACGUCGCAGCCCCUUUCAGAUUCUGGUGAAUCUGCGAAUUCUGCUGUAUAUCUC [G10C G42U] | 0.16
UAACAGGGGGCCACAGCAGACGCGUUCACGUCGCAGCCCCUGUCAGAUUCUGGUGAAUCUGCGAAUUCCGCUGUAUAUCUC [A21C U69C] | 0.2
